B1: SMARCE1 (parent)
chain: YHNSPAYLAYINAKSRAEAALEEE

# Variants of: B1
# assay_text: protein stability index of a GFP-peptide fusion (GPS, HEK-293T) (PSI 1-6); higher = more stable;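 note: lentivirally expressed fusions sorted by FACS into six bins by GFP to DsRed ratio, PSI derived from sequencing read proportions per bin multiplied by bin number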
# condition_context: c terminus: a fixed tail appended
readout_type: protein stability index
Please reply with the number alone, leaving off any unit.

Prompt line: Param item = R16Y ; retrieve measured protein stability index.
Response line: 2.82

Prompt line: Repeat for the following variant: E18R
Response line: 1.97

Prompt line: Y7T , same question.
Response line: 2.95

Prompt line: What about this variant? A19K
Response line: 2.05

Prompt line: Now give it for A19S too.
Response line: 2.06

Prompt line: Then this variant: A6C
Response line: 1.77

Prompt line: Would you mind doing A9L as well?
Response line: 1.5

Prompt line: Now consider K14A and answer again.
Response line: 1.79

Prompt line: Follow-up item: L8M
Response line: 2.23

Prompt line: Then what about the variant S15H ?
Response line: 2.59

Prompt line: Now this one: P5C
Response line: 3.56

Prompt line: Then this variant: A20P
Response line: 2.66

Prompt line: Same question for N12E please.
Response line: 1.93

Prompt line: Another: S15N
Response line: 2.29
